- Test system: plasma protein
- assay-method-text: Literature % plasma protein binding of calibration compounds
- test-parameters: linear conversion of literature % PPB
Threshold check on lit logK: strictly below 0.5 is satisfied; on or above 0.5 is not satisfied.

molecule	label
CN1C(C(=O)Nc2ccccn2)=C(O)c2ccccc2S1(=O)=O [Piroxicam]	not satisfied
CNC(=C[N+](=O)[O-])NCCSCc1csc(CN(C)C)n1 [Nizatidine]	satisfied
O=C(O)Cc1ccccc1Nc1c(Cl)cccc1Cl [Diclofenac]	not satisfied
CCCC1O[C@@H]2C[C@H]3[C@@H]4CCC5=CC(=O)C=C[C@]5(C)[C@H]4[C@@H](O)C[C@]3(C)[C@]2(C(=O)CO)O1 (stereo partly drawn) [Budesonide]	not satisfied
O=C1CN=C(c2ccccn2)c2cc(Br)ccc2N1 [Bromazepam]	satisfied

Is lit logK strictly under 0.5 for the entry NC(=O)N1c2ccccc2C=Cc2ccccc21 [Carbamazepine] ?
satisfied
